Tested on: Key Grass and Sedge Weeds as well as Grass Crops
Test: Post-emergent Test II herbicidal activity (Table 16)
Assay type: in vivo
Settings: Echinochloa crus-galli, post-emergence, 336 h, barnyardgrass (Echinochloa crus-galli), 140 g ai/ha, 14 days after application, read-out: Visual Growth Reduction (%) 14 Days After Application ECHCG
assay_readout: pest or weed control at 140 g/ha

QUERY: Need pest or weed control at 140 g/ha, item COC(=O)c1nc(-c2ccc3[nH]nnc3c2)cc(N)c1Cl [Compound 9.01]
RESULT: 95 to 100%

QUERY: Need pest or weed control at 140 g/ha, item COC(=O)c1nc(-c2cccc3ccsc23)cc(N)c1Cl [Compound 3.27]
RESULT: 0 to 29%

QUERY: Need pest or weed control at 140 g/ha, item COC(=O)c1nc(-c2ccc3scnc3c2)c(F)c(N)c1Cl [Compound 6.01]
RESULT: 60 to 74%

QUERY: Need pest or weed control at 140 g/ha, item COC(=O)c1nc(-c2ccc3cnn(C)c3c2)c(F)c(N)c1Cl [Compound 4.07]
RESULT: 0 to 29%

QUERY: Need pest or weed control at 140 g/ha, item COC(=O)c1nc(-c2cc3sccc3cc2F)c(F)c(N)c1Cl [Compound 3.14]
RESULT: 0 to 29%

QUERY: Need pest or weed control at 140 g/ha, item Nc1c(F)c(-c2cccc3ccsc23)nc(C(=O)O)c1Cl [Compound 3.25]
RESULT: 0 to 29%

QUERY: Need pest or weed control at 140 g/ha, item COC(=O)c1nc(-c2ccc3ccsc3c2)cc(N)c1Cl [Compound 3.15]
RESULT: 95 to 100%

QUERY: Need pest or weed control at 140 g/ha, item Nc1c(Cl)c(C(=O)O)nc(-c2ccc3ccsc3c2)c1Cl [Compound 3.11]
RESULT: 0 to 29%

QUERY: Need pest or weed control at 140 g/ha, item COC(=O)c1nc(-c2ccc3ccsc3c2)c(C)c(N)c1Cl [Compound 3.18]
RESULT: 0 to 29%

QUERY: Need pest or weed control at 140 g/ha, item COC(=O)c1nc(-c2ccc3ncn(C)c3c2)c(F)c(N)c1Cl [Compound 7.02]
RESULT: 0 to 29%

QUERY: Need pest or weed control at 140 g/ha, item COC(=O)c1nc(-c2ccc3c(cnn3C)c2)c(F)c(N)c1Cl [Compound 4.03]
RESULT: 75 to 84%

QUERY: Need pest or weed control at 140 g/ha, item Cn1ncc2ccc(-c3nc(C(=O)O)c(Cl)c(N)c3F)cc21 [Compound 4.08]
RESULT: 0 to 29%

QUERY: Need pest or weed control at 140 g/ha, item COC(=O)c1nc(-c2ccc3ccsc3c2)c(F)c(N)c1Cl [Compound 3.12]
RESULT: 85 to 94%

QUERY: Need pest or weed control at 140 g/ha, item COC(=O)c1nc(-c2ccc3cn[nH]c3c2)cc(N)c1Cl [Compound 4.09]
RESULT: 0 to 29%

QUERY: Need pest or weed control at 140 g/ha, item COC(=O)c1nc(-c2cccc3cn[nH]c23)c(F)c(N)c1Cl [Compound 4.13]
RESULT: 0 to 29%

QUERY: Need pest or weed control at 140 g/ha, item COC(=O)c1nc(-c2ccc3ocnc3c2)c(F)c(N)c1Cl [Compound 5.01]
RESULT: 85 to 94%

QUERY: Need pest or weed control at 140 g/ha, item COC(=O)c1nc(-c2cccc3c2cnn3C)c(F)c(N)c1Cl [Compound 4.10]
RESULT: 0 to 29%

QUERY: Need pest or weed control at 140 g/ha, item COC(=O)c1nc(-c2ccc3cn[nH]c3c2)c(F)c(N)c1Cl [Compound 4.05]
RESULT: 85 to 94%

QUERY: Need pest or weed control at 140 g/ha, item COC(=O)c1nc(-c2cc3sccc3cc2F)cc(N)c1Cl [Compound 3.17]
RESULT: 95 to 100%

###

Test system: Key Grass and Sedge Weeds as well as Grass Crops
Test: Post-emergent Test II herbicidal activity (Table 16)
Type: in vivo
Conditions: Echinochloa crus-galli, post-emergence, 336 h, barnyardgrass (Echinochloa crus-galli), 140 g ai/ha, 14 d, read-out: Visual Growth Reduction (%) 14 Days After Application, ECHCG
Please go through the items and note down their pest or weed control at 140 g/ha.

QUERY: Need pest or weed control at 140 g/ha, item COC(=O)c1nc(-c2ccc3occc3c2)cc(N)c1Cl
RESULT: 85 to 94%

QUERY: Need pest or weed control at 140 g/ha, item COC(=O)c1nc(-c2ccc3sccc3c2)cc(N)c1Cl
RESULT: 85 to 94%

QUERY: Need pest or weed control at 140 g/ha, item Nc1cc(-c2cc3[nH]ccc3cc2F)nc(C(=O)O)c1Cl
RESULT: 0 to 29%

QUERY: Need pest or weed control at 140 g/ha, item COC(=O)c1nc(-c2cccc3[nH]ccc23)c(F)c(N)c1Cl
RESULT: 0 to 29%

QUERY: Need pest or weed control at 140 g/ha, item Nc1cc(-c2ccc3cc[nH]c3c2)nc(C(=O)O)c1Cl
RESULT: 0 to 29%

###

System: Key Broadleaf Weed and Crop Species
Experiment: Post-emergent Test II herbicidal activity (Table 15)
Format: in vivo
Conditions: Euphorbia heterophylla, post-emergence, 336 h, wild poinsettia (Euphorbia heterophylla), 35 g ai/ha, 14 d, read-out: Visual Growth Reduction (%) 14 Days After Application, EPHHL
assay_readout: pest or weed control at 35 g/ha

QUERY: Need pest or weed control at 35 g/ha, item COC(=O)c1nc(-c2ccc(Cl)c3occc23)cc(N)c1Cl [Compound 2.19]
RESULT: 0 to 29%

QUERY: Need pest or weed control at 35 g/ha, item COC(=O)c1nc(-c2ccc3cc[nH]c3c2)c(Cl)c(N)c1Cl [Compound 1.05]
RESULT: 30 to 44%

QUERY: Need pest or weed control at 35 g/ha, item COC(=O)c1nc(-c2cccc3cn[nH]c23)c(F)c(N)c1Cl [Compound 4.13]
RESULT: 0 to 29%

QUERY: Need pest or weed control at 35 g/ha, item Cc1c(-c2ccc3ccsc3c2)nc(C(=O)O)c(Cl)c1N [Compound 3.19]
RESULT: 0 to 29%

QUERY: Need pest or weed control at 35 g/ha, item COC(=O)c1nc(-c2ccc3ccsc3c2)c(C)c(N)c1Cl [Compound 3.18]
RESULT: 45 to 59%

###

Test system: Key Grass and Sedge Weeds as well as Grass Crops
Assay: Post-emergent Test II herbicidal activity (Table 16)
Format: in vivo
Conditions: Zea mays, post-emergence, 336 h, maize, corn (Zea mays), 70 g ai/ha, 14 d, read-out: Visual Growth Reduction (%) 14 Days After Application, ZEAMX
Please go through the items and note down their pest or weed control at 70 g/ha.

QUERY: Need pest or weed control at 70 g/ha, item Nc1c(Cl)c(C(=O)O)nc(-c2ccc3sccc3c2)c1Cl
RESULT: 60 to 74%

QUERY: Need pest or weed control at 70 g/ha, item C=Cc1c(N)nc(-c2ccc3cc[nH]c3c2F)nc1C(=O)O
RESULT: 0 to 29%

QUERY: Need pest or weed control at 70 g/ha, item COC(=O)c1nc(-c2ccc3ccn([Si](C(C)C)(C(C)C)C(C)C)c3c2F)c(F)c(N)c1Cl
RESULT: 0 to 29%

QUERY: Need pest or weed control at 70 g/ha, item COC(=O)c1nc(-c2ccc3cc[nH]c3c2)c(C)c(N)c1Cl
RESULT: 0 to 29%

QUERY: Need pest or weed control at 70 g/ha, item COC(=O)c1nc(-c2ccc3ccoc3c2F)cc(N)c1Cl
RESULT: 60 to 74%

QUERY: Need pest or weed control at 70 g/ha, item Nc1c(F)c(-c2ccc(Cl)c3occc23)nc(C(=O)O)c1Cl
RESULT: 0 to 29%

QUERY: Need pest or weed control at 70 g/ha, item C=Cc1c(C(=O)O)nc(-c2ccc3cc[nH]c3c2F)c(F)c1N
RESULT: 60 to 74%

QUERY: Need pest or weed control at 70 g/ha, item COC(=O)c1nc(-c2ccc(Cl)c3[nH]ccc23)nc(N)c1OC
RESULT: 0 to 29%

QUERY: Need pest or weed control at 70 g/ha, item Nc1cc(-c2ccc3cc[nH]c3c2)nc(C(=O)O)c1Cl
RESULT: 0 to 29%

QUERY: Need pest or weed control at 70 g/ha, item COC(=O)c1nc(-c2ccc3ccoc3c2F)c(F)c(N)c1Cl
RESULT: 60 to 74%

QUERY: Need pest or weed control at 70 g/ha, item Nc1c(F)c(-c2ccc3occc3c2)nc(C(=O)O)c1Cl
RESULT: 95 to 100%

QUERY: Need pest or weed control at 70 g/ha, item COC(=O)c1nc(-c2ccc(Cl)c3occc23)nc(N)c1OC
RESULT: 0 to 29%

QUERY: Need pest or weed control at 70 g/ha, item COC(=O)c1nc(-c2ccc3cc[nH]c3c2F)c(F)c(N)c1Cl
RESULT: 30 to 44%

QUERY: Need pest or weed control at 70 g/ha, item COC(=O)c1nc(-c2ccc(Cl)c3occc23)nc(N)c1Cl
RESULT: 0 to 29%

QUERY: Need pest or weed control at 70 g/ha, item COC(=O)c1nc(-c2ccc(Cl)c3cc[nH]c23)c(F)c(N)c1Cl
RESULT: 0 to 29%

QUERY: Need pest or weed control at 70 g/ha, item COC(=O)c1nc(-c2ccc3cc[nH]c3c2F)nc(N)c1OC
RESULT: 0 to 29%

QUERY: Need pest or weed control at 70 g/ha, item COC(=O)c1nc(-c2ccc3sccc3c2)c(C)c(N)c1Cl
RESULT: 0 to 29%
